Origin of the recorded values: patent US5010086A

target or system: PDE I
measurement protocol: phosphodiesterase inhibition, PDE I (peak I PDE)
experimental setup: peak I PDE
Measured pIC50 of individual entries
Remember the convention: pIC50 equals -log10 of concentration in molar.

A selection of reference data follows.
{"columns": ["compound", "target or system", "value"],
 "data": [
  ["Cc1nc2[nH]c(=O)[nH]c2cc1-c1ccc(NS(C)(=O)=O)cc1 [Example 9]", "PDE I", 4.35],
  ["O=c1[nH]c2cc(-c3ccncc3)c(C(F)(F)C(F)(F)F)nc2[nH]1 [2(d)]", "PDE I", 4.92]
]}

Entry Cc1nc2[nH]c(=O)[nH]c2cc1-c1ccc(N)cc1 [Example 6] : pIC50 on PDE I = 4.35

Entry CCCNC(=O)Nc1ccc(-c2cc3[nH]c(=O)[nH]c3nc2C)cc1 [Example 15] : pIC50 on PDE I = 3.50

Entry O=c1[nH]c2cc(-c3ccncc3)c(C(F)(F)F)nc2[nH]1 [1(e)] : pIC50 on PDE I = 4.28

Entry CCCCCCS(=O)(=O)Nc1ccc(-c2cc3[nH]c(=O)[nH]c3nc2C)cc1 [Example 13] : pIC50 on PDE I = 5.25

Entry CCCCS(=O)(=O)Nc1ccc(-c2cc3[nH]c(=O)[nH]c3nc2C)cc1 [Example 10] : pIC50 on PDE I = 5.05

Entry Cc1nc2[nH]c(=O)[nH]c2cc1-c1ccc(NC(=O)C(F)(F)F)cc1 [Example 7] : pIC50 on PDE I = 4.20

Entry Cc1nc2[nH]c(=O)[nH]c2cc1-c1ccc(NS(=O)(=O)c2cccc3cccnc23)cc1 [Example 14] : pIC50 on PDE I = 5.80

====

target or system: PDE III (Canis lupus familiaris)
Construct: isolated from canine aortic smooth, ventricular or tracheal smooth muscle sources; DEAE-cellulose peak III
measurement protocol: phosphodiesterase inhibition, PDE III (peak III PDE)
Could you mark each record label 1 if its IC50 falls strictly under 90 nM, and label 0 if it equals or exceeds it?

Hi there! Is IC50 for O=c1[nH]c2cc(-c3ccncc3)c(C(F)(F)C(F)(F)F)nc2[nH]1 below 90 nM, do you know? label 0

Hi there! Is IC50 for Cc1nc2[nH]c(=O)[nH]c2cc1-c1ccccc1 below 90 nM, do you know? label 0

Hi there! Is IC50 for Cc1nc2[nH]c(=O)[nH]c2cc1-c1ccc(NS(=O)(=O)c2cccc3cccnc23)cc1 below 90 nM, do you know? label 1

====

Measured IC50 of individual entries
target or system: PDE III (Canis lupus familiaris, UniProt A0A8I3NYE0)
Construct: isolated from canine aortic smooth, ventricular or tracheal smooth muscle sources; DEAE-cellulose peak III
Sequence (A0A8I3NYE0 1-1135): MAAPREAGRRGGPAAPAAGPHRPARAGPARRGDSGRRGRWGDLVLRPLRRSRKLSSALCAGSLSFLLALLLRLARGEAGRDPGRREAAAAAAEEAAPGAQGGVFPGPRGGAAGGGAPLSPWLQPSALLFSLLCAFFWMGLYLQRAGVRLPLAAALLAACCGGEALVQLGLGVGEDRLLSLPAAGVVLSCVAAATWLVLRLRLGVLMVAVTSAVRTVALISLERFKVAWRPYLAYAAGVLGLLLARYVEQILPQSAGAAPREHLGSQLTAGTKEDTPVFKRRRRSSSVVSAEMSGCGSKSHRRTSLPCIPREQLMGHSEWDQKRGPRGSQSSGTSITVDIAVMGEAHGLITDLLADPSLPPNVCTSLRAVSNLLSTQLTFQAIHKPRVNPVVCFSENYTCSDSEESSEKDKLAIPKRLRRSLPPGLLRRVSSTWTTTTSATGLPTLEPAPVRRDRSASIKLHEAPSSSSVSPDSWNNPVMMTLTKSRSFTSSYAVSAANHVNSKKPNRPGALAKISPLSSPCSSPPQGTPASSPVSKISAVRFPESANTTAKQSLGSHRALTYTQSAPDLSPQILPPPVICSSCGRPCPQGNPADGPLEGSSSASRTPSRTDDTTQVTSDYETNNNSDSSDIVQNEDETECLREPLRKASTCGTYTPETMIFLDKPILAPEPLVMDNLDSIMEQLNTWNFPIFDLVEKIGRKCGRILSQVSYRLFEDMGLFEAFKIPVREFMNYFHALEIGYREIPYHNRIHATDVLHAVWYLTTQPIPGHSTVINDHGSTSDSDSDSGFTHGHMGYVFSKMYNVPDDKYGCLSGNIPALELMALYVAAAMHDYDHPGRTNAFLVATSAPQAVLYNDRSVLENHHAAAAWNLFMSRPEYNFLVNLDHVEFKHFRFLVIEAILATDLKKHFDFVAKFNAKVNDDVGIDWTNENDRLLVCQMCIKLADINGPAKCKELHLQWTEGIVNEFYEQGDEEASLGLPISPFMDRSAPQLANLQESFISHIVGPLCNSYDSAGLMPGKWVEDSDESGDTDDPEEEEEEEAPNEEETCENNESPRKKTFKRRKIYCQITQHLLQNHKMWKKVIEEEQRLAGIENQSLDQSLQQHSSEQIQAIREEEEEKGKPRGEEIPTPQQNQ
measurement protocol: phosphodiesterase inhibition, PDE III (peak III PDE)
Quick reminder: number only, in nM, skip the unit.

A selection of reference data follows.
{"columns": ["compound", "IC50 (nM)"],
 "data": [
  ["CCCCS(=O)(=O)Nc1ccc(-c2cc3[nH]c(=O)[nH]c3nc2C)cc1", 94],
  ["CC(=O)Nc1ccc(-c2cc3[nH]c(=O)[nH]c3nc2C)cc1", 620],
  ["Cc1nc2[nH]c(=O)[nH]c2cc1-c1ccc([N+](=O)[O-])cc1", 9]
]}

The record that follows has no IC50 shown yet.
Entry Cc1nc2[nH]c(=O)[nH]c2cc1-c1ccc(N)cc1 : IC50 on PDE III (Canis lupus familiaris, UniProt A0A8I3NYE0) = 500
